Cited source for all entries: patent US20250101436A1

# Test system: N5-12G6 riboswitch
# Experimental details: Firefly luciferase assay, N5-12G6 riboswitch in HEK293 cells
# Experimental conditions: Homo sapiens, HEK293, read-out: Fold induction 25 μM (HEK), 12G6 riboswitch, luciferase, HEK293, 25 μM
Categories are assigned from the measured fold induction at 25 µM using these intervals: bin 1: < 8; bin 2: ≥ 8 and < 300; bin 3: ≥ 300

Study these solved cases before continuing.
> print(dat)
                                   molecule  qualitative.label
1        Clc1cc2nccnc2cc1CNc1cnccc1N1CCNCC1              bin 3
2       Fc1cc(CNc2cnccc2N2CCNCC2)cc2nccnc12              bin 3
3      O=C1CN(c2ccncc2NCc2ccc3nccnc3c2)CCN1              bin 1
4  FC(F)(F)C1CNCCN1c1ccncc1NCc1ccc2nccnc2c1 (stereo not drawn)              bin 1
5      Clc1cncc(NCc2ccc3nccnc3c2)c1N1CCNCC1              bin 3

Task item: Class label required: `c1cc(C2CCNCC2)c(NCc2ccc3nccnc3c2)cn1`
Reply: bin 2

Task item: One more molecule: CC1CN(c2ccncc2NCc2ccc3nccnc3c2)CCN1 (stereo not drawn)
Reply: bin 2

Task item: One more molecule: CN(c1ccncc1NCc1ccc2nccnc2c1)C1CCNC1 (stereo not drawn)
Reply: bin 2
